target: POLRMT (Homo sapiens); test: homogeneous TR-FRET assay of mitochondrial transcription (inhibition of POLRMT); type: biochemical; conditions: isoquinolinone compounds (Table 1)
pIC50: −log10 of the molar value.
READOUT LABEL: pIC50

A. CC(=O)N1CCN(C(=O)[C@@H](C)Oc2ccc3c(-c4ccc(F)cc4Cl)c[nH]c(=O)c3c2)CC1
B. Cc1ccccc1-c1c[nH]c(=O)c2cc(NC(C)C(N)=O)ccc12 (centres unmarked) [Example 69]
When the recorded pIC50 values are compared, which is smaller: that of A or that of B ? // output: label of the selected item B

----------
Target: POLRMT (Homo sapiens)
Assay: homogeneous TR-FRET assay of mitochondrial transcription (inhibition of POLRMT)
Assay type: biochemical
Conditions: isoquinolinone compounds (Table 1)
Procedure: The inhibitory activity of the compounds of the present invention against POLRMT were determined by assays based on Bergbrede, T., et al., “An adaptable high-throughput technology enabling the identification of specific transcription modulators,” SLAC Discov., 22, 378-386 (2017). The ability of some compounds of the present invention to inhibit POLRMT were determined in a homogeneous TR-FRET Assay using high-throughput screening in a 384-well plate format. […]
pIC50: −log10 of the molar value.
READOUT LABEL: pIC50

Worked cases, answers included:
COMPOUND	pIC50
C[C@@H]1CN(C(=O)[C@@H](C)Oc2ccc3c(-c4ccc(F)cc4Cl)c[nH]c(=O)c3c2)C[C@H](C)O1	7.00
Cc1cccc(C)c1-c1c[nH]c(=O)c2cc(O[C@H](C)C(=O)O)ccc12	7.05
Cc1ccccc1-c1c[nH]c(=O)c2cc(NC(C)C(N)=O)ccc12 (centres unmarked) [Example 68]	4.96

P. CC(C#N)Oc1ccc2c(-c3ccccc3Cl)c[nH]c(=O)c2c1 (single isomer, unassigned) [Example 57]
Q. Cc1ccccc1-c1c[nH]c(=O)c2cc(OC(C)(C)C(=O)O)ccc12
When the recorded pIC50 values are compared, which is smaller: that of P or that of Q ? // output: label of the selected item Q

1. CC(=O)N1CC[C@H](Oc2ccc3c(-c4ccccc4C)c[nH]c(=O)c3c2)C1
2. C[C@@H](Oc1ccc2c(-c3ccc(F)cc3Cl)c[nH]c(=O)c2c1)C(=O)N1CCOC[C@H]1C(=O)O
API: POST /compare with 1 and 2 ; response names the item with higher pIC50. // output: label of the selected item 2

----------
biological target: POLRMT (Homo sapiens, UniProt O00411); test: homogeneous TR-FRET assay of mitochondrial transcription (inhibition of POLRMT); format: biochemical; settings: isoquinolinone compounds (Table 1)
Sequence (O00411 42-1230): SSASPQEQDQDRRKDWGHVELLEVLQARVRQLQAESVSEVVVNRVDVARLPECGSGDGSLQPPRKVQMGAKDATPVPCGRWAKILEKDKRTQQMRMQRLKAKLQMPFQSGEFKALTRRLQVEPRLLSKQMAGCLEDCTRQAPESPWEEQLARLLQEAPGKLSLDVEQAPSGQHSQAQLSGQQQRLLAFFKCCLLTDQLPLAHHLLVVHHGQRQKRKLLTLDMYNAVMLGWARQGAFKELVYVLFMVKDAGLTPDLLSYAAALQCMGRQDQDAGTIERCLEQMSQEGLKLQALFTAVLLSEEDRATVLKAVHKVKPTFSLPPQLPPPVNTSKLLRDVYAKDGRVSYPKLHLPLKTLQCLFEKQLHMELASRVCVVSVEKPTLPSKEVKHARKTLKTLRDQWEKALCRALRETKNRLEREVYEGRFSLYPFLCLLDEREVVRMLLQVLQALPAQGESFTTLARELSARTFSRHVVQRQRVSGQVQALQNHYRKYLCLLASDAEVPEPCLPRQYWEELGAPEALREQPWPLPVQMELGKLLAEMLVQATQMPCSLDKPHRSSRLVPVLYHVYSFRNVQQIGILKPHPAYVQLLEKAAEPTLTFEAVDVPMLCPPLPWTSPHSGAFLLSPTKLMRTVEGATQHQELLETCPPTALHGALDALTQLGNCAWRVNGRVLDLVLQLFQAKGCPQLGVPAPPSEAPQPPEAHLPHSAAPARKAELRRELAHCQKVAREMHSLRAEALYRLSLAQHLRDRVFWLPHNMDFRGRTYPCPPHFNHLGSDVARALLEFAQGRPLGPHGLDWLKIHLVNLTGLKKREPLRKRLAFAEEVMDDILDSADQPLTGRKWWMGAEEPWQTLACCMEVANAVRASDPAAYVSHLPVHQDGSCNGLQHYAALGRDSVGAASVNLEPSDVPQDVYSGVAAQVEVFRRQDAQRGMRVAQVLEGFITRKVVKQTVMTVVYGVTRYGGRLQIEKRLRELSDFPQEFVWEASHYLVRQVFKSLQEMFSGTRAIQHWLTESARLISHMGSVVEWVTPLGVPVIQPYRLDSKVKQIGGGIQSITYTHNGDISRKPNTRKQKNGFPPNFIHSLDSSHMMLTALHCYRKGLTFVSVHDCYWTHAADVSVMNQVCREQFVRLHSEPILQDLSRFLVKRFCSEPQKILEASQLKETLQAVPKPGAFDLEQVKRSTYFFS
READOUT LABEL: IC50 (nM)

COMPOUND	ASSAYED TARGET	OBS VALUE
Cc1ccccc1-c1c[nH]c(=O)c2cc(O[C@H](C)C(=O)N3CCCC(F)(F)C3)ccc12	POLRMT (Homo sapiens, UniProt O00411)	30
C[C@@H](Oc1ccc2c(-c3ccc(F)cc3Cl)c[nH]c(=O)c2c1)C(=O)N1CCN(C)CC1	POLRMT (Homo sapiens, UniProt O00411)	1000

1. Cc1ccccc1-c1c[nH]c(=O)c2cc(O[C@H](C)C(=O)N3CCC[C@H](C(N)=O)C3)ccc12
2. C[C@@H](Oc1ccc2c(-c3ccc(F)cc3Cl)c[nH]c(=O)c2c1)C(=O)N1CC2CC1CN2C (stereo partly shown)
API: POST /compare with 1 and 2 ; response names the item with higher IC50. // output: label of the selected item 2
(2: 2000 nM, 1: 70 nM)

----------
molecular target: POLRMT (Homo sapiens, UniProt O00411); experiment: homogeneous TR-FRET assay of mitochondrial transcription (inhibition of POLRMT); type: biochemical; conditions: isoquinolinone compounds (Table 1)
pIC50: −log10 of the molar value.
READOUT LABEL: pIC50

COMPOUND	pIC50
Cc1ccc(-c2c[nH]c(=O)c3cc(OCC#N)ccc23)c(Cl)c1	6.52

I. C[C@@H](Oc1ccc2c(-c3ccc(F)cc3Cl)c[nH]c(=O)c2c1)C(=O)N1CCO[C@H](C(N)=O)C1
II. COCC(C#N)Oc1ccc2c(-c3ccccc3C)c[nH]c(=O)c2c1 (single isomer, unassigned) [Example 76]
API: POST /compare with I and II ; response names the item with higher pIC50. // output: label of the selected item II
(II: 6.70, I: 6.40)

----------
molecular target: POLRMT (Homo sapiens, UniProt O00411); test: homogeneous TR-FRET assay of mitochondrial transcription (inhibition of POLRMT); assay type: biochemical; conditions: isoquinolinone compounds (Table 1)
READOUT LABEL: IC50 (µM)

COMPOUND	READOUT LABEL	OBS VALUE
Cc1ccccc1-c1c[nH]c(=O)c2cc(O[C@H](C)C(=O)N3CCC[C@H](C#N)C3)ccc12	IC50	0.03
C[C@H](Oc1ccc2c(-c3ccc(F)cc3Cl)c[nH]c(=O)c2c1)C(=O)N1CCC(C(=O)O)CC1	IC50	39

P. C[C@@H](Oc1ccc2c(-c3ccc(F)cc3Cl)c[nH]c(=O)c2c1)C(=O)N1CCN(S(C)(=O)=O)CC1
Q. C[C@@H](Oc1ccc2c(-c3ccc(F)cc3Cl)c[nH]c(=O)c2c1)C(=O)N1CCO[C@@H](C(=O)O)C1
R. COCC(C)Oc1ccc2c(-c3ccccc3C)c[nH]c(=O)c2c1 (single isomer, unassigned) [Example 27]
S. C[C@@H](Oc1ccc2c(-c3ccc(F)cc3Cl)c[nH]c(=O)c2c1)C(=O)N1CCC[C@H](C(N)=O)C1
Ascending by IC50, please: list the compounds accordingly. To answer, write out the labels according to the requested order. S, Q, R, P

----------
target: POLRMT (Homo sapiens, UniProt O00411); assay: homogeneous TR-FRET assay of mitochondrial transcription (inhibition of POLRMT); format: biochemical; conditions: isoquinolinone compounds (Table 1)
pIC50: −log10 of the molar value.
READOUT LABEL: pIC50

Worked cases, answers included:
COMPOUND	pIC50
Cc1ccccc1-c1c[nH]c(=O)c2cc(OC(C)C(F)(F)F)ccc12 (centres unmarked) [Example 61]	6.40
COC[C@@H]1COCCN1C(=O)[C@@H](C)Oc1ccc2c(-c3ccc(F)cc3Cl)c[nH]c(=O)c2c1 [Example 102]	6.15

I. CC(C#N)Oc1ccc2c(-c3ccc(F)cc3Cl)c[nH]c(=O)c2c1 (single isomer, unassigned) [Example 50]
II. Cc1ccccc1-c1c[nH]c(=O)c2cc(OCC(C)C)ccc12 [Example 6]
API: POST /compare with I and II ; response names the item with higher pIC50. // output: label of the selected item II
(II: 6.70, I: 6.22)

1. CCC(=O)N1CCN(C(=O)[C@@H](C)Oc2ccc3c(-c4ccc(F)cc4Cl)c[nH]c(=O)c3c2)CC1 [Example 117]
2. Cc1ccccc1-c1c[nH]c(=O)c2cc(NC(=O)C(C)C)ccc12 [Example 30]
When the recorded pIC50 values are compared, which is smaller: that of 1 or that of 2 ? // output: label of the selected item 2
(2: 5.70, 1: 6.30)

a. Cc1ccccc1-c1c[nH]c(=O)c2cc(OC(C)C)ccc12 [Example 4]
b. CC(C)Oc1ccc2c(-c3ccc(F)cc3Cl)c[nH]c(=O)c2c1 [Example 7]
API: POST /compare with a and b ; response names the item with higher pIC50. // output: label of the selected item a

----------
target: POLRMT (Homo sapiens); assay: homogeneous TR-FRET assay of mitochondrial transcription (inhibition of POLRMT); format: biochemical; settings: quinolinone compounds (Table 2)
READOUT LABEL: IC50 (µM)

Worked cases, answers included:
COMPOUND	UNIT TAG	IC50
CCC(C)Oc1ccc2c(-c3ccccc3C)cc(=O)[nH]c2c1 (stereo not drawn) [Example Q11]	µM	3
Cc1ccccc1-c1cc(=O)[nH]c2cc(O[C@H](C)C(=O)N3CCC[C@H](C(=O)O)C3)ccc12 [Example Q15]	µM	7
Cc1ccccc1-c1cc(=O)[nH]c2cc(O[C@H](C)C(=O)N(C)C)ccc12 (single isomer, unassigned) [Example Q7]	µM	9
Cc1ccccc1-c1cc(=O)[nH]c2cc(O[C@H](C)C(=O)N3CCC(C(=O)O)CC3)ccc12 [Example Q14]	µM	7
C[C@@H](Oc1ccc2c(-c3ccc(F)cc3Cl)cc(=O)[nH]c2c1)C(=O)N1CCCCC1 [Example Q5]	µM	5
C[C@@H](Oc1ccc2c(-c3ccc(F)cc3Cl)cc(=O)[nH]c2c1)C(=O)N(C)C [Example Q6]	µM	18

1. CC(C)Oc1ccc2c(-c3ccc(F)cc3Cl)cc(=O)[nH]c2c1 [Example Q4]
2. Cc1cc(F)ccc1-c1cc(=O)[nH]c2cc(OC(C)C)ccc12 [Example Q3]
3. Cc1ccccc1-c1cc(=O)[nH]c2cc(OC(C)C)ccc12 [Example Q10]
Ascending by IC50, please: list the compounds accordingly. To answer, write out the labels according to the requested order. 3, 2, 1
(3: 2 µM, 2: 4 µM, 1: 23 µM)

A. Cc1ccccc1-c1cc(=O)[nH]c2cc(OCC(C)C)ccc12 [Example Q12]
B. Cc1ccccc1-c1cc(=O)[nH]c2cc(O[C@H](C)C(=O)O)ccc12 [Example Q13]
When the recorded IC50 values are compared, which is smaller: that of A or that of B ? // output: label of the selected item B
